Field: pest or weed control at 500 g/ha. Provide a value for each of the molecules that follow.
- Test system: Ipomoea hederacea (IPOHE)
- protocolDetails: Post-emergence efficacy, glasshouse, evaluated after 13 days
- Assay type: in vivo
- condition: Ipomoea hederacea, 312 h; post-emergence application, 500 g/Ha, evaluated after 13 days; read-out: Control of weed species IPOHE (100=total damage to plant; 0=no damage to plant)
Response body: numeric value in %, unit text excluded.

query: Which measured pest or weed control at 500 g/ha belongs to `O=C(O)CC[n+]1ccc(C(=O)N2CCSCC2)cn1` , tested on Ipomoea hederacea (IPOHE)?
result: 50

query: Which measured pest or weed control at 500 g/ha belongs to CC(O)CNC(=O)c1cc[n+](CCC(=O)O)nc1 (stereo not shown) , tested on Ipomoea hederacea (IPOHE)?
result: 30

query: Which measured pest or weed control at 500 g/ha belongs to `CN(C)C(=O)c1cc[n+](CCCS(=O)(=O)O)nc1` , tested on Ipomoea hederacea (IPOHE)?
result: 20

query: Which measured pest or weed control at 500 g/ha belongs to `Cn1cnc(CNC(=O)c2cc[n+](CCC(=O)O)nc2)n1` , tested on Ipomoea hederacea (IPOHE)?
result: 40

query: Which measured pest or weed control at 500 g/ha belongs to COCC(C)NC(=O)c1cc[n+](CCC(=O)O)nc1 (stereo not shown) , tested on Ipomoea hederacea (IPOHE)?
result: 40

query: Which measured pest or weed control at 500 g/ha belongs to CCNC(=O)c1cc[n+](C(C)CC(=O)O)nc1 (stereo not shown) , tested on Ipomoea hederacea (IPOHE)?
result: 70

query: Which measured pest or weed control at 500 g/ha belongs to `CS(=O)(=O)CCNC(=O)c1cc[n+](CCNS(=O)(=O)[O-])nc1` , tested on Ipomoea hederacea (IPOHE)?
result: 30

query: Which measured pest or weed control at 500 g/ha belongs to `CCNC(=O)c1cc[n+](CC(C)(C)C(=O)O)nc1` , tested on Ipomoea hederacea (IPOHE)?
result: 90

query: Which measured pest or weed control at 500 g/ha belongs to `O=C(O)CC[n+]1ccc(C(=O)NC2CS(=O)(=O)C2)cn1` , tested on Ipomoea hederacea (IPOHE)?
result: 30

query: Which measured pest or weed control at 500 g/ha belongs to `C=CCNC(=O)c1cc[n+](CCNS(=O)(=O)[O-])nc1` , tested on Ipomoea hederacea (IPOHE)?
result: 60

----------
- Tested on: Echinochloa crus-galli (ECHCG)
- protocolDetails: Post-emergence efficacy, glasshouse, evaluated after 13 days
- Format: in vivo
- condition: Echinochloa crus-galli, 312 h; post-emergence application, 500 g/Ha, evaluated after 13 days; read-out: Control of weed species ECHCG (100=total damage to plant; 0=no damage to plant)
Where a name gives a salt, the structure may show the parent alone.
Field: pest or weed control at 500 g/ha. Provide a value for each of the compounds that follow.
Response body: numeric value in %, unit text excluded.

query: What pest or weed control at 500 g/ha value was documented for this compound, CN(C(=O)c1cc[n+](CCC(=O)O)nc1)c1ccccc1 [Compound A38, trifluoroacetate] ?
result: 60

query: What pest or weed control at 500 g/ha value was documented for this compound, `CS(=O)(=O)CCNC(=O)c1cc[n+](CCNS(=O)(=O)[O-])nc1` ?
result: 50

query: What pest or weed control at 500 g/ha value was documented for this compound, `O=C(O)CC[n+]1ccc(C(=O)NCC(F)(F)F)cn1` ?
result: 100

query: What pest or weed control at 500 g/ha value was documented for this compound, `CCNC(=O)c1cc[n+](CCS(=O)(=O)[O-])nc1` ?
result: 70

query: What pest or weed control at 500 g/ha value was documented for this compound, `CCNC(=O)c1cc[n+](CCCC(=O)O)nc1` ?
result: 60
